experiment: Pharmacokinetic test in rats; format: in vivo; details: rat, plasma; SD rats, PO 10 mg/kg
Outcome label depends on half-life relative to 20 h: at/above gives Condition met, below gives Condition not met.

[
  {
    "compound": "CP(C)(=O)c1ccc(Nc2ccc(C(F)(F)F)cc2)c(-c2ccccn2)c1 [Example 10]",
    "class_name": "Condition not met"
  },
  {
    "compound": "CP(C)(=O)c1ccc2c(c1)c1ccccc1n2-c1ccc(C(F)(F)F)cc1 [Example 1]",
    "class_name": "Condition met"
  },
  {
    "compound": "Cn1cnc(-c2cc(P(C)(C)=O)cnc2Nc2ccc(C(F)(F)F)cc2)c1 [Example 8]",
    "class_name": "Condition not met"
  },
  {
    "compound": "CP(C)(=O)c1cnc(Nc2ccc(C(F)(F)F)cc2)c(-c2cn3c(n2)CCC3)c1 [Example 22]",
    "class_name": "Condition not met"
  },
  {
    "compound": "Cn1cnc(-c2cc(P(C)(C)=O)ccc2Nc2ccc(C(F)(F)F)cc2)c1 [Example 14]",
    "class_name": "Condition not met"
  },
  {
    "compound": "CP(C)(=O)c1ccc(Nc2ccc(C(F)(F)F)cc2)c(-c2ncccn2)c1 [Example 12]",
    "class_name": "Condition met"
  }
]
